assay target: Grb2 SH2 (UniProt P62993)
Sequence (P62993 whole entry, looked up, the tested form may be a part): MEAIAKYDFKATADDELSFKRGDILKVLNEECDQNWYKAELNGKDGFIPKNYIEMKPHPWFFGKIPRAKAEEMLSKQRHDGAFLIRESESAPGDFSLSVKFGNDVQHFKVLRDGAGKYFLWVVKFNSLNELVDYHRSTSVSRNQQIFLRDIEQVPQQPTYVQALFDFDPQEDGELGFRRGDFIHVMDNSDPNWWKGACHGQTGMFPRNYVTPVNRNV
protocol notes: SH2 binding enrichment of the phosphorylated peptide, bacterial display (enrichment ratio); higher = better substrate or ligand; peptides without Tyr show the background;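 note: peptide library displayed on the E. coli surface as eCPX fusions, selected cells deep-sequenced, score is each peptide's frequency after selection divided by its frequency in the input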
Property: SH2 binding enrichment; scope: individual sequences
The reply should be a number, written without any unit.

chain	test readout	measured result
GVRFIYTIDGS [DCX_Y105_YF]	SH2 binding enrichment	0.915
IGEGTSGVVFK [CDK2_Y15_Y15S_YF]	SH2 binding enrichment	0.844
YQQLFYLLQIN [IQGAP2_Y890_T894I]	SH2 binding enrichment	1.31
ACVARYIFKRL [LPCAT3_Y348_W344C]	SH2 binding enrichment	0.89
RLGLQYSQGLV [EIF2B4_Y214]	SH2 binding enrichment	0.955

Prompt: Fill blank: measured SH2 binding enrichment of the sequence PDSVDYRKKGY [CTSK_Y121] is ____.
Completion: 1.14

Prompt: So what's the measured SH2 binding enrichment for this one? QSSALYEDHFL [ASS1_Y83_R86H_YF]
Completion: 0.809

Prompt: Which SH2 binding enrichment is listed for GGQSVYHVNLH [HINT1_Y109_H112N] ?
Completion: 0.698
